test system: A549; assay: Cytotoxicity against human A549 cells; type: functional, cell-based
Here the recorded IC50 is given for each entry.
experimental.endpoint: IC50

COc1cc2oc(=O)cc(-c3ccccc3)c2cc1O
> 10 µg/mL
COc1ccc(C(=O)/C=C/c2cc(O)c(OC)cc2O)cc1O
21.9 µM
COc1cc(O)c(C(=O)c2ccccc2)cc1O
> 10 µg/mL
COC1=CC(=O)c2cc(-c3ccc(OC)c(O)c3)c3cc(O)c(OC)cc3c2C1=O
> 10 µg/mL

---

tested on: DU-145; test: Cytotoxicity against human DU145 cells; type: functional, cell-based
Each record here notes measured IC50.
experimental.endpoint: IC50

COC1=CC(=O)c2cc(-c3ccc(OC)c(O)c3)c3cc(O)c(OC)cc3c2C1=O
> 10 mg/L
COc1cc2oc(=O)cc(-c3ccccc3)c2cc1O
> 10 mg/L
COc1ccc(C(=O)/C=C/c2cc(O)c(OC)cc2O)cc1O
29.8 µM
COc1cc(O)c(C(=O)c2ccccc2)cc1O
> 10 mg/L
